Data origin, for the record: PubChem BioAssay AID493008

Biological target: Troponin I, cardiac muscle (Homo sapiens) + Troponin T, cardiac muscle (Homo sapiens) + Troponin C, slow skeletal and cardiac muscles (Homo sapiens) (UniProt P19429+P45379+P63316)
Assay: calcium sensitizers of cardiac thin filaments – biochemical, IANBD-TnC fluorescence, EC20 calcium, primary screen (AID 493008);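 also: rise in fluorescence read as greater calcium sensitivity of cardiac thin filaments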
Conditions: IANBD-labeled TnC RTF fluorescence at EC20 calcium; at 7.2 µM; stronger effect = higher value; 0% EC20 calcium, 100% full calcium
Among all 340,000 compounds or so, about 800 (0.24%) were called active. Only a selection was taken, and actives are over-represented in it overall.
# activation listing for each entry below
Numbers only; they are read as %.

// known answers, use as guide
>  <COMPOUND>
Cc1cccc(N=Nc2c(O)[nH]c3ccc(F)cc23)c1

>  <EXPERIMENTAL_RESULT>
31.3

$$$$
>  <COMPOUND>
CCC1CCCCN1C(=O)Nc1cccc(NC(=O)N2CCCCC2CC)c1 (stereo not drawn)

>  <EXPERIMENTAL_RESULT>
-3.65

$$$$
>  <COMPOUND>
CCOC(=O)c1ccccc1OC(=O)Oc1ccccc1C(=O)OCC

>  <EXPERIMENTAL_RESULT>
0.28

$$$$

Ask: Look up activation for this compound: Brc1ccc(C2=CC(c3ccco3)n3ncnc3N2)cc1 (stereo not drawn)
Result: 245

Ask: Look up activation for this compound: CCOC(=O)/C=C/C(=O)OCC(=O)NC(c1ccccc1)c1ccccc1
Result: -0.28

###

Target: Troponin I, cardiac muscle (Homo sapiens) + Troponin T, cardiac muscle (Homo sapiens) + Troponin C, slow skeletal and cardiac muscles (Homo sapiens) (UniProt P19429+P45379+P63316)
Test: calcium sensitizers of cardiac thin filaments – biochemical, IANBD-TnC fluorescence, EC20 calcium, primary screen (AID 493008);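 also: rise in fluorescence read as greater calcium sensitivity of cardiac thin filaments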
Conditions: IANBD-labeled TnC RTF fluorescence at EC20 calcium; at 7.2 µM; stronger effect = higher value; 0% EC20 calcium, 100% full calcium
Out of some 340,000 compounds screened, about 800 (0.24%) were called active. For the sample, actives were picked, then their nearest neighbours and some compounds at random.
# activation listing for each entry below
Numbers only; they are read as %.

// known answers, use as guide
>  <MOLECULE>
COCCCNC(=O)C1CCN(c2ccc(N3CCOCC3)nn2)CC1

>  <SCALE_UNIT>
%

>  <activation>
1.09

$$$$
>  <MOLECULE>
O=S(=O)(Nc1cccc(Oc2ccc(Cl)cc2)n1)c1ccc(F)cc1

>  <SCALE_UNIT>
%

>  <activation>
-5.16

$$$$
>  <MOLECULE>
O=C(N[C@H]1C/C=C\C(c2cccc(F)c2)N(Cc2ccccc2)C(=O)C1)OCC1c2ccccc2-c2ccccc21 (stereo not given in full)

>  <SCALE_UNIT>
%

>  <activation>
-0.43

$$$$
>  <MOLECULE>
Nc1nc(SCC(=O)N2CCN(S(=O)(=O)c3ccc(Cl)cc3)CC2)n[nH]1

>  <SCALE_UNIT>
%

>  <activation>
11.6

$$$$
>  <MOLECULE>
CN1C(=O)/C(=C/C=C2\SCCN2C)OC1=S

>  <SCALE_UNIT>
%

>  <activation>
34

$$$$

Ask: Look up activation for this molecule: O=C(NCc1ccccc1CN1CCCC1)c1cccc(S(=O)(=O)Nc2ccc(F)cc2)c1
Result: -1.12

Ask: Look up activation for this molecule: CC1CCCN(S(=O)(=O)c2ccc(-c3ccc(=O)[nH]n3)o2)C1 (stereo not given)
Result: 0.69

Ask: Look up activation for this molecule: Cc1ccc(N(Cc2cc(=O)[nH]c3ccccc23)C(=O)CCl)cc1
Result: -2.09

Ask: Look up activation for this molecule: CC1CCCCC12NC(=O)N(CC(=O)OCc1c(F)cccc1Cl)C2=O (stereo not given)
Result: -6.16

Ask: Look up activation for this molecule: COc1ccc(C(=O)OCc2cc(=O)n3ccsc3n2)cc1F
Result: -7.02

###

# activation listing for each entry below
Molecular target: Troponin I, cardiac muscle (Homo sapiens) + Troponin T, cardiac muscle (Homo sapiens) + Troponin C, slow skeletal and cardiac muscles (Homo sapiens) (UniProt P19429+P45379+P63316)
Test: calcium sensitizers of cardiac thin filaments – biochemical, IANBD-TnC fluorescence, EC20 calcium, primary screen (AID 493008);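 also: rise in fluorescence read as greater calcium sensitivity of cardiac thin filaments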
Conditions: IANBD-labeled TnC RTF fluorescence at EC20 calcium; at 7.2 µM; stronger effect = higher value; 0% EC20 calcium, 100% full calcium
Screen size: about 340,000 compounds; about 800 (0.24%) were called active. Many of the other results were omitted from the sample, so actives are more common in it than they were.
Numbers only; they are read as %.

>  <COMPOUND>
CCCN(CCC)C(=O)C1c2ccccc2Oc2ccccc21

>  <activation, %>
98.3

$$$$
>  <COMPOUND>
C=CCn1c(SCC(=O)c2c(N)n(C)c(=O)n(C)c2=O)nc2sc(CC)cc2c1=O

>  <activation, %>
1.89

$$$$
>  <COMPOUND>
Cc1nc(N)sc1-c1ccccc1

>  <activation, %>
-3.97

$$$$

Ask: Look up activation for this compound: CCOc1cc(C=NNC(=O)CCCC(=O)NN=Cc2ccc(O)c(OCC)c2)ccc1O
Result: 3.71

Ask: Look up activation for this compound: CCCC(O)(CCC)C(=O)NN(C(=O)CCl)c1cccc(C)c1
Result: -2.77

Ask: Look up activation for this compound: O=C(C[n+]1cc(Br)cc2ccccc21)c1ccc(F)cc1
Result: -1.35

Ask: Look up activation for this compound: CCOC(=O)CC(NC(=O)C1c2ccccc2Oc2ccccc21)c1ccc(C)cc1 (centres undefined)
Result: 4.5

Ask: Look up activation for this compound: COc1ccc(N2CCN(S(=O)(=O)c3ccc4c(c3)NC(=O)C(C)C(=O)N4)CC2)cc1 (centres undefined)
Result: -1.46

Ask: Look up activation for this compound: O=C(c1cc(-c2ccc(O)cc2)on1)N1CCCc2ccccc21
Result: 6.06

###

# activation listing for each entry below
Target: Troponin I, cardiac muscle (Homo sapiens) + Troponin T, cardiac muscle (Homo sapiens) + Troponin C, slow skeletal and cardiac muscles (Homo sapiens) (UniProt P19429+P45379+P63316)
Experiment: calcium sensitizers of cardiac thin filaments – biochemical, IANBD-TnC fluorescence, EC20 calcium, primary screen (AID 493008);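 also: rise in fluorescence read as greater calcium sensitivity of cardiac thin filaments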
Conditions: IANBD-labeled TnC RTF fluorescence at EC20 calcium; at 7.2 µM; stronger effect = higher value; 0% EC20 calcium, 100% full calcium
In all, about 340,000 compounds went through this assay and about 800 (0.24%) were called active. The list comes from a sample in which actives are over-represented; it also holds close analogues and randomly drawn compounds.
Numbers only; they are read as %.

Ask: Look up activation for this compound: O=C(NC1=CC(=O)c2ccccc2C1=O)c1ccccc1
Result: -2.47

Ask: Look up activation for this compound: COc1ncnc2c1N=C1CC(C)(C)CC(N)=C1S2
Result: 30.1

Ask: Look up activation for this compound: CCCc1cc(=O)[nH]c(SCC(=O)Nc2ccc(S(=O)(=O)N3CCCC3)cc2)n1
Result: -0.74

Ask: Look up activation for this compound: O=C(CSc1nnc(C2CC2)n1Cc1ccccc1)Nc1cccnc1Cl
Result: 1.37

Ask: Look up activation for this compound: Cc1ccc2nc(SCC(=O)N3CCN(c4ccccc4)CC3)nc(=O)n2c1
Result: -2.94

Ask: Look up activation for this compound: Cc1c(C)n2c(SCC(=O)NC3CCCC3)nnc2[nH]c1=O
Result: 0.28

###

Target: Troponin I, cardiac muscle (Homo sapiens) + Troponin T, cardiac muscle (Homo sapiens) + Troponin C, slow skeletal and cardiac muscles (Homo sapiens) (UniProt P19429+P45379+P63316)
Experiment: calcium sensitizers of cardiac thin filaments – biochemical, IANBD-TnC fluorescence, EC20 calcium, primary screen (AID 493008);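 also: rise in fluorescence read as greater calcium sensitivity of cardiac thin filaments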
Conditions: IANBD-labeled TnC RTF fluorescence at EC20 calcium; at 7.2 µM; stronger effect = higher value; 0% EC20 calcium, 100% full calcium
Among all 340,000 compounds or so, about 800 (0.24%) were called active. Many of the other results were omitted from the sample, so actives are more common in it than they were.
OBSERVED_PROPERTY: activation (%)
Numbers only; they are read as %.

// known answers, use as guide
>  <COMPOUND>
O=C(COC(=O)c1cccc(Br)c1)Nc1cccc2c1C(=O)c1ccccc1C2=O

>  <EXPERIMENTAL_RESULT>
-3.82

$$$$
>  <COMPOUND>
CC(C)(C)c1ccc(/C=C/C(=O)NC2CCS(=O)(=O)C2)cc1 (stereo not given)

>  <EXPERIMENTAL_RESULT>
8.91

$$$$
>  <COMPOUND>
N#C/C(=C\c1ccc(N2CCOCC2)o1)C(=O)N1CCOCC1

>  <EXPERIMENTAL_RESULT>
114

$$$$
>  <COMPOUND>
CCN1CCN(c2ccc(S(=O)(=O)N3CCCCC3)cc2NC(=O)c2cccc(NC(C)=O)c2)CC1

>  <EXPERIMENTAL_RESULT>
-0.39

$$$$
>  <COMPOUND>
COc1ccccc1N(CC(=O)Nc1ccc(C)cc1Cl)S(=O)(=O)c1cccs1

>  <EXPERIMENTAL_RESULT>
-7.85

$$$$
>  <COMPOUND>
Cc1cc(F)ccc1N1CCC(N2CCN(C)C(CCO)C2)CC1 (stereo not given)

>  <EXPERIMENTAL_RESULT>
0.01

$$$$
>  <COMPOUND>
C=CCNc1nnc(C)c2ccccc12

>  <EXPERIMENTAL_RESULT>
6.46

$$$$
>  <COMPOUND>
CN1CCNC(=O)C1CC(=O)NCCC1=CCCCC1 (stereo not given)

>  <EXPERIMENTAL_RESULT>
9.88

$$$$
>  <COMPOUND>
Cc1ccc2[nH]c(=O)c(-c3nc4c(C)cccn4c3NCc3ccco3)cc2c1

>  <EXPERIMENTAL_RESULT>
-3.25

$$$$
>  <COMPOUND>
CN(C)c1ccc(C=C2C(=O)OC3(CCCC3)OC2=O)cc1

>  <EXPERIMENTAL_RESULT>
-3.77

$$$$

Ask: Look up activation for this compound: CSC1=NCCN1C(=O)Cc1cccc2ccccc12
Result: -2.5

Ask: Look up activation for this compound: COCc1cc(=O)[nH]c2cc(NC(=O)C(F)(F)F)c(C)cc12
Result: -3.59

Ask: Look up activation for this compound: COc1cccc2c1C(=O)c1c(O)c3c(c(O)c1C2=O)CC(O)(C(C)=NNC(=O)c1ccc(Cl)c(Cl)c1)CC3OC1CC(N)C(O)C(C)O1 (stereo not given)
Result: 220

Ask: Look up activation for this compound: COc1ccc(C(CNCC(=O)Nc2ccccc2F)N(C)C)cc1 (stereo not given)
Result: -1.39

Ask: Look up activation for this compound: CCOc1nc(OCC)nc(-n2cc(-c3ccccc3)nn2)n1
Result: -0.01
